Molecular target: Steroid 17-alpha-hydroxylase/17,20 lyase (Homo sapiens, UniProt P05093)
Sequence (P05093 whole entry): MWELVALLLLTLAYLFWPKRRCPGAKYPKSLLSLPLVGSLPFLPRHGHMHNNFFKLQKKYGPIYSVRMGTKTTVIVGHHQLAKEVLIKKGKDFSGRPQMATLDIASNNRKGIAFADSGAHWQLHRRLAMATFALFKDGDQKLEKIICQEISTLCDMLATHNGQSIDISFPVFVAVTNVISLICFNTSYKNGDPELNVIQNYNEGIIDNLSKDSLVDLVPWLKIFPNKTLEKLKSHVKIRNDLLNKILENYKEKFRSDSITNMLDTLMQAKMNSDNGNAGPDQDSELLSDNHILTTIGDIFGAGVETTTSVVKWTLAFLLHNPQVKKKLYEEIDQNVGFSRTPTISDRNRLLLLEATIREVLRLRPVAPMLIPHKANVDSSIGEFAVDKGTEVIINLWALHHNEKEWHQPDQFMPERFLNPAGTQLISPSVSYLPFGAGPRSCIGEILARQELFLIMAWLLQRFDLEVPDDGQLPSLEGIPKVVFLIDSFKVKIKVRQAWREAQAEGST
Assay: Percent inhibition of human testicular microsomal Cytochrome P450 17A1
Set-up: concentration or dose not given beside the values
# if measured Inhibition < 20%: criterion met  # else: criterion not met

Ask | Threshold test, Inhibition < 20%: C[C@]12CCC3C(CC=C4CC(O)CC[C@@]43C)C1CCC2c1ncc[nH]1 (stereo not given in full)
Reply | criterion not met

Ask | Repeat with Cn1ccc(C2=CCC3C4CC=C5CC(O)CC[C@]5(C)C4CC[C@]23C)n1 (stereo not given in full)
Reply | criterion not met

Ask | Repeat with Cn1nccc1C1=CCC2C3CC=C4CC(O)CC[C@]4(C)C3CC[C@]12C (stereo not given in full)
Reply | criterion met

Ask | Repeat with `Cc1ncc([C@H]2CC[C@H]3[C@@H]4CC=C5C[C@@H](O)CC[C@]5(C)[C@H]4CC[C@]23C)[nH]1`
Reply | criterion not met

----------
Target: Steroid 17-alpha-hydroxylase/17,20 lyase (Homo sapiens)
Sequence (P05093 whole entry): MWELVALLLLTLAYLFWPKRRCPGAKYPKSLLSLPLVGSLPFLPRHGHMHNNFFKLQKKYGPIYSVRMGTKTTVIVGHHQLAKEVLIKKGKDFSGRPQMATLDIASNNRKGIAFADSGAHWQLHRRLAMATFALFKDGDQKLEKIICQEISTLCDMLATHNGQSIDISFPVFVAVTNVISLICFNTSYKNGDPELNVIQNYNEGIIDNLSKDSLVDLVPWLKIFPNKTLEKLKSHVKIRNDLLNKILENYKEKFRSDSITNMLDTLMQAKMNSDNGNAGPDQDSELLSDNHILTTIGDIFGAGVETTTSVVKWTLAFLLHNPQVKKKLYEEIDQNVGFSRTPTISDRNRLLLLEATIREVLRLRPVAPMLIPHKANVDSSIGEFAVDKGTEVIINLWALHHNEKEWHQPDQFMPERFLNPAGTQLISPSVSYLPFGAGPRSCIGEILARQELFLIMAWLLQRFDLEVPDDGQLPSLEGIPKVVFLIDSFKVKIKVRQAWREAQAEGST
Assay: Percent inhibition of human testicular microsomal Cytochrome P450 17A1
Parameters: concentration or dose not given beside the values
OBSERVATION_TYPE: Inhibition (%)
Entry rule: numbers only, all in %.

Ask | Which Inhibition is listed for C[C@]12CCC(O)CC1=CCC1C2CC[C@]2(C)C(c3ccnn3-c3ccccc3)=CCC12 (some centres undefined) ?
Reply | 11

Ask | Repeat with C[C@]12CCC3C(CC=C4CC(O)CC[C@@]43C)C1CCC2c1ccno1 (some centres undefined)
Reply | 21

Ask | Repeat with Cc1nc(C2CCC3C4CC=C5CC(O)CC[C@]5(C)C4CC[C@]23C)co1 (some centres undefined)
Reply | 21

Ask | Repeat with C[C@]12CCC(O)CC1=CCC1C2CC[C@@]2(C)C1CC[C@@H]2c1c[nH]c(-c2ccccc2)n1 (some centres undefined)
Reply | 21

----------
Target: Steroid 17-alpha-hydroxylase/17,20 lyase (Homo sapiens, UniProt P05093)
Sequence (P05093 whole entry): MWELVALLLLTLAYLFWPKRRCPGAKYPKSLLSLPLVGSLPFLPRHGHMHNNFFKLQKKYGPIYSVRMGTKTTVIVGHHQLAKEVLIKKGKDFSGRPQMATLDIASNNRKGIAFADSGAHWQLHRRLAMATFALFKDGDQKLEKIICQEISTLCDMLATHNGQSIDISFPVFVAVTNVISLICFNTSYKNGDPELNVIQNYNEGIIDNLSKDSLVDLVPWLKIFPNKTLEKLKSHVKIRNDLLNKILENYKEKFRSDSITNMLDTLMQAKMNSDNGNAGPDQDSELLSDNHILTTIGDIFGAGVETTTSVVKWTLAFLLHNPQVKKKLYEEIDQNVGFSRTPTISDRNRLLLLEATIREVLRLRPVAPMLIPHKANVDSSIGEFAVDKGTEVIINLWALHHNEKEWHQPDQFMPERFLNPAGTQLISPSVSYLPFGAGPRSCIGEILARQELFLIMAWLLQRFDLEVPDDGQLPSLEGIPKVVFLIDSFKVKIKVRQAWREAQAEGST
pIC50: −log10 of the molar value.
Rule: pIC50 of 7 or more gives Criterion met; anything lower gives Criterion not met.

Ask | pIC50 >= 7 for `CC(=O)O[C@H]1CC[C@@]2(C)C(=CC[C@H]3[C@@H]4CC[C@H](c5c[nH]cn5)[C@@]4(C)CC[C@@H]32)C1` ?
Reply | Criterion not met

Ask | Repeat with C[C@]12CCC(=O)C=C1CCC1C2CC[C@@]2(C)C1CC[C@]2(O)c1c[nH]cn1 (stereo partly specified)
Reply | Criterion not met

Ask | Repeat with C[C@]12CC[C@H](O)CC1=CC[C@@H]1[C@@H]2CC[C@@]2(C)[C@H]1CC1O[C@]12c1cnc[nH]1 (stereo partly specified)
Reply | Criterion not met

Ask | Repeat with C[C@]12CCC(=O)C=C1CCC1C2CC[C@]2(C)C(c3ccno3)=CCC12 (stereo partly specified)
Reply | Criterion met

Ask | Repeat with `C[C@]12CC[C@H](O)CC1=CC[C@@H]1[C@@H]2CC[C@]2(C)C(c3ccn[nH]3)=CC[C@@H]12`
Reply | Criterion met

Ask | Repeat with C[C@]12CCC(=O)C=C1CCC1C2CC[C@]2(C)C(c3ccn[nH]3)=CCC12 (stereo partly specified)
Reply | Criterion met

Ask | Repeat with C[C@]12CCC3C(CC=C4CC(O)CC[C@@]43C)C1CCC2c1ccon1 (stereo partly specified)
Reply | Criterion not met

Ask | Repeat with C[C@]12CCC(=O)C=C1CCC1C2CC[C@@]2(C)C1CC[C@@H]2c1cnc[nH]1 (stereo partly specified)
Reply | Criterion met

Ask | Repeat with C[C@]12CCC(=O)C=C1CCC1C2CC[C@]2(C)C(c3cnc[nH]3)=CCC12 (stereo partly specified)
Reply | Criterion met

Ask | Repeat with `C[C@]12CC[C@H](O)CC1=CC[C@@H]1[C@@H]2CC[C@]2(C)C(c3c[nH]cn3)=CC[C@@H]12`
Reply | Criterion met

----------
Molecular target: Steroid 17-alpha-hydroxylase/17,20 lyase (Rattus norvegicus, UniProt P11715)
Sequence (P11715 whole entry): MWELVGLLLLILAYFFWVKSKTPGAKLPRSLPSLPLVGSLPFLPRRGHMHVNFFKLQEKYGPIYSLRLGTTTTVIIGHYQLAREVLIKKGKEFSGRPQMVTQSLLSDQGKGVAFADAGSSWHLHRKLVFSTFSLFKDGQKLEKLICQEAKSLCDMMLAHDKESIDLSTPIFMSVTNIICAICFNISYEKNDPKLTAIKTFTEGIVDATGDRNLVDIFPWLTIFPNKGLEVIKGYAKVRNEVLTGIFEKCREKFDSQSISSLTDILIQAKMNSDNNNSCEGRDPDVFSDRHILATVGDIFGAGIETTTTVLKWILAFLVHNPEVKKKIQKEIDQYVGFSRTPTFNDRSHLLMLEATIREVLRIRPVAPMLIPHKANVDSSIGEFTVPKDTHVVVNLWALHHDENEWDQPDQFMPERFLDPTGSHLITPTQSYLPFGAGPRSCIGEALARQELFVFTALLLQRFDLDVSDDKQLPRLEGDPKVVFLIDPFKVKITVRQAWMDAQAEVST
OBSERVATION_TYPE: IC50

Ask | Enter reported IC50 observed with Steroid 17-alpha-hydroxylase/17,20 lyase (Rattus norvegicus, UniProt P11715) for `Cc1ncc([C@H]2CC[C@H]3[C@@H]4CC=C5C[C@@H](O)CC[C@]5(C)[C@H]4CC[C@]23C)[nH]1`
Reply | 4810 nM

Ask | Repeat with `C[C@]12CC[C@H](O)CC1=CC[C@@H]1[C@@H]2CC[C@]2(C)C(c3ccno3)=CC[C@@H]12`
Reply | 84 nM

Ask | Repeat with CC(=O)O[C@H]1CC[C@@]2(C)C(=CC[C@H]3[C@@H]4CC[C@H](C5=CNC(C(C)=O)N5)[C@@]4(C)CC[C@@H]32)C1 (stereo not given in full)
Reply | 5460 nM

Ask | Repeat with `C[C@]12CC[C@H]3[C@@H](CC=C4C[C@@H](O)CC[C@@]43C)[C@@H]1CC[C@@H]2c1cnc[nH]1`
Reply | 91 nM

Ask | Repeat with CC(=O)N1CCN(c2ccc(OC[C@H]3CO[C@](Cn4ccnc4)(c4ccc(Cl)cc4Cl)O3)cc2)CC1 [KETOCONAZOLE]
Reply | 1070 nM

Ask | Repeat with C[C@]12CCC(=O)C=C1CCC1C2CC[C@]2(C)C(c3ccn[nH]3)=CCC12 (stereo not given in full)
Reply | 76 nM

Ask | Repeat with `C[C@]12CC[C@H](O)CC1=CC[C@@H]1[C@@H]2CC[C@]2(C)C(c3c[nH]cn3)=CC[C@@H]12`
Reply | 49 nM

Ask | Repeat with C[C@]12CCC(=O)C=C1CCC1C2CC[C@@]2(C)C1CC[C@@H]2c1cnc[nH]1 (stereo not given in full)
Reply | 79 nM

Ask | Repeat with C[C@]12CCC(=O)C=C1CCC1C2CC[C@]2(C)C(c3cnc[nH]3)=CCC12 (stereo not given in full)
Reply | 14 nM

Ask | Repeat with `C[C@]12CC[C@H](O)CC1=CC[C@@H]1[C@@H]2CC[C@]2(C)C(c3ccn[nH]3)=CC[C@@H]12`
Reply | 28 nM
